B1: TRIM39 (parent)
chain: CKACITRWWEDLERDFPCPVCRKT

Variants of: B1
ASSAY TEXT: protein stability index of a GFP-peptide fusion (GPS, HEK-293T) (PSI 1-6); higher = more stable;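 also: lentivirally expressed fusions sorted by FACS into six bins by GFP to DsRed ratio, PSI derived from sequencing read proportions per bin multiplied by bin number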
TEST PARAMETERS: c terminus: a fixed tail appended
Short version: protein stability index at least 3 is satisfied, less is not satisfied.

// below: answered variants
>  <MUTATION ID>
K2L

>  <CAT>
satisfied

$$$$
>  <MUTATION ID>
P17E

>  <CAT>
satisfied

$$$$
>  <MUTATION ID>
W9H

>  <CAT>
satisfied

$$$$
>  <MUTATION ID>
R22D

>  <CAT>
satisfied

$$$$
>  <MUTATION ID>
C21V

>  <CAT>
not satisfied

$$$$
>  <MUTATION ID>
K23P

>  <CAT>
satisfied

$$$$
>  <MUTATION ID>
E10K

>  <CAT>
satisfied

$$$$
>  <MUTATION ID>
C1S

>  <CAT>
not satisfied

$$$$

Item W8P with protein stability index of 3 or above?
satisfied

Exam item: decide whether the reported protein stability index for F16W is at least 3.
satisfied

Check this variant for protein stability index at or above 3: W8N
satisfied

API: above_or_equal(metric=protein stability index, cutoff=3) for item K2C
satisfied

Confirm if protein stability index reported for the variant C21H is 3 or above.
not satisfied

# bool: protein stability index of A3N >= 3
satisfied

Exam item: decide whether the reported protein stability index for L12S is at least 3.
satisfied

Threshold query (protein stability index >= 3) on W8I
satisfied

Tell me whether protein stability index is at least 3 here: C4S
not satisfied

In plain terms: is recorded protein stability index at least 3 for D15S ?
satisfied

Data provenance: the supplement of paper PMC10567573
